System: SNB-19 CNS
Test: NCI-60 one-dose screen, 48 h (100 = growth as untreated, 0 = no growth, -100 = all killed)
Conditions: 10 µM
About 83,000 compounds went through this panel and 20% of them were active in at least one assay; those are over-represented in the sample as a whole.
Hi there, I'd appreciate the recorded growth for every entry that follows.
One number for each entry, in %.

molecule	value unit	quantitative result
CC1(c2ccccc2)NC(=O)NC1=O (stereo not given)	%	103

Can you give me growth for all of these, one by one?
1. COc1ccc2c(NCCCCCCCCNc3c4ccccc4nc4cc(OC)ccc34)c3ccccc3nc2c1
2. CC(=O)c1ccc(C)c(N)c1
3. O=S(=O)(Cc1ccccc1)c1ccccc1
4. COC(=O)Nc1nc2ccc(C(=O)c3cccs3)cc2[nH]1
5. CC(C)(C)n1nc(C2CC2)c(Br)c1NC(=O)c1ccccc1F

Output:
1: -86.7; 2: 99; 3: 107; 4: 29.9; 5: 107

---

Tested on: HCT-15 colon
Experiment: NCI-60 one-dose screen, 48 h (100 = growth as untreated, 0 = no growth, -100 = all killed)
Details: 10 µM
The panel holds about 83,000 compounds, 20% with a hit somewhere; the sample as a whole holds those more often.
Hi there, I'd appreciate the recorded growth for every entry that follows.
Give bare numbers, in %.

compound	readout name	value unit	quantitative result
O=c1cc(-c2ccccc2)nc2cc(-c3ccco3)[nH]n12	growth	%	67.8
N/N=C(/Cc1ccccc1)NNC(N)=S	growth	%	97.5
CN(C)c1ccc(C(c2ccc(O)cc2)c2ccc(N(C)C)cc2)cc1	growth	%	70.8

Can you give me growth for all of these, one by one?
1. CC[N+](C)(CC)CCO
2. CCOC(=O)C(CCC(C)C)C(=O)OCC
3. CCc1nc(N)nc(N)c1-c1ccc(Cl)cc1
4. CN(C)C(C)(C)CC(C)(C)C
5. COc1cc2c3cc1Oc1c(OC)c(OC)cc4c1C(Cc1ccc(O)c(c1)Oc1ccc(cc1)CC3N(C)CC2)N(C)CC4 (stereo not drawn)
6. Oc1ccc(O)cc1
7. CCNc1nc2c(cnn2C)c(=O)[nH]1

Output:
1: 97.8; 2: 104; 3: 34.1; 4: 100; 5: 6.32; 6: 101; 7: 122

Can you give me growth for all of these, one by one?
1. C=CCCCCCCCCCOC(C)=O
2. c1ccc(/C(=N\N=C(/c2ccccc2)c2cccs2)c2cccs2)cc1
3. COC(=O)C(C)Oc1ccc(OC#N)cc1 (stereo not drawn)
4. COC(=O)c1cc(-c2ccc(Cl)c(Cl)c2)[nH]c(=O)c1C#N
5. CC12CC3CC1C(C(=O)O2)C3C(=O)O (stereo not drawn)

Output:
1. 114
2. 92.4
3. 99.7
4. 96.3
5. 104

Can you give me growth for all of these, one by one?
1. O=[N+]([O-])c1cccc2nsnc12
2. C#Cc1cccc(NC(=O)c2ccc(Cl)cc2Cl)c1
3. COc1ccccc1NC(=O)c1cc2cc(Br)ccc2cc1O
4. CCCCNC(=O)C(=O)NCCCC

Output:
1: 103; 2: 87.6; 3: 7.97; 4: 105

---

System: SR leukemia
Experiment: NCI-60 one-dose screen, 48 h (100 = growth as untreated, 0 = no growth, -100 = all killed)
Conditions: 10 µM
About 83,000 compounds went through this panel and 20% of them were active in at least one assay; those are over-represented in the sample as a whole.
readout name: growth (%)
One number for each entry, in %.

molecule	study system	value unit	growth
OC(c1ccccn1)C(O)c1ccccn1 (stereo unspecified)	SR leukemia	%	98.7

Can you give me growth for all of these, one by one?
1. FC(F)(F)c1ccc2c(c1)N(CCCN1CCN(C3CC3)CC1)c1ccccc1S2
2. NC(=S)CN1CCOCC1

Output:
1. 7.62
2. 78.2

---

System: K-562 leukemia
Test: NCI-60 one-dose screen, 48 h (100 = growth as untreated, 0 = no growth, -100 = all killed)
Conditions: 10 µM
About 83,000 compounds went through this panel and 20% of them were active in at least one assay; those are over-represented in the sample as a whole.
Hi there, I'd appreciate the recorded growth for every entry that follows.
Give bare numbers, in %.

compound	readout name	quantitative result
C=CCCCCCCCCCOC(C)=O	growth	93.6
c1c(-c2cc(C3CC3)[nH]n2)n[nH]c1C1CC1	growth	70.9
CC(=O)OC(C(=O)O)c1ccccc1 (configuration not stated)	growth	108
Cc1ccc(O)c(C(=O)c2ccccc2)c1	growth	122
CCC(O)CC(CC)CO (configuration not stated)	growth	105
Nc1nc2c(c(-c3nc(N)nc4c3CCc3ccccc3-4)n1)CCc1ccccc1-2	growth	99.2

Then there is this compound:
Input: Record lookup: for K-562 leukemia, what growth belongs to NC(CSC(c1ccccc1)(c1ccccc1)c1ccccc1)C(=O)O (configuration not stated) ?
Output: 14.5

---

Hi there, I'd appreciate the recorded growth for every entry that follows.
System: SNB-75 CNS
Test: NCI-60 one-dose screen, 48 h (100 = growth as untreated, 0 = no growth, -100 = all killed)
Conditions: 10 µM
This is part of a sample that, as a whole, favours compounds with a hit. Of some 83,000 tested, about 20% had one in any assay. Where a SMILES comes first, the peptide text is derived from it. Bridges are numbered along the chain shown (N, C = ends). [ ]: non-standard residue; d: D form. The star is where a group is joined. ξ: configuration not given here. ξNMePhe(4-NMe2) = CNC(Cc1ccc(N(C)C)cc1)C(=O)O; Picolinoyl(3-OH) = O=C(c1ncccc1O)*; ξPip(4-oxo) = O=C1CCNC(C(=O)O)C1; Phg = N[CH](C(=O)O)c1ccccc1; Abu = CC[CH](N)C(=O)O
Numbers only, in %.

compound	growth / %
Cc1ccc(CCCC(=O)O)c(C)c1	79.2
CCC(C)(C)C1CCC(O)CC1 (centres undefined)	100
O=c1[nH]cc(Cl)cc1O	93.1
O=c1cc(-c2ccccc2)[nH]c(=S)[nH]1	96.9
CCC1NC(=O)C(NC(=O)c2ncccc2O)C(C)OC(=O)C(c2ccccc2)NC(=O)C2CC(=O)CCN2C(=O)C(Cc2ccc(N(C)C)cc2)N(C)C(=O)C2CCCN2C1=O (centres undefined) (tested in a mixture with another compound) ({Picolinoyl(3-OH)}-T[Abu]P[ξNMePhe(4-NMe2)][ξPip(4-oxo)][Phg]; ester 1-C; configuration not given here)	45.4
CN(C)C(=O)Oc1cccc([N+](C)(C)C)c1	85.1
CC1OC(Oc2c(-c3ccc(O)c(O)c3)oc3cc(O)cc(O)c3c2=O)C(O)C(O)C1O (centres undefined)	96.5
COc1cc(C(=O)NC(=S)Nc2ccc3ccccc3c2)cc(OC)c1OC	92

Can you give me growth for all of these, one by one?
1. O=C(O)CSCSCC(=O)O
2. Cc1cccc([N+](=O)[O-])c1Cl
3. CCN(CC)CCCC(C)Nc1ccnc(/C=C/c2ccc(Cl)cc2)c1 (centres undefined)
4. CC(=O)c1c[nH]c2ccccc12
5. Clc1ccc(-c2nnc(-c3cccc4ccccc34)o2)cc1

Output:
1. 77.2
2. 95.2
3. -49.3
4. 88.1
5. 76.8

Can you give me growth for all of these, one by one?
1. O=C(CCl)Nc1ccc2c(c1)C(=O)c1ccc(NC(=O)CCl)cc1C2=O
2. COCCOCCCl
3. CCOC(=O)CNN

Output:
1. -55.4
2. 95.9
3. 94.7

Can you give me growth for all of these, one by one?
1. CC(=O)OCC1CCCO1 (centres undefined)
2. CC(=O)Nc1cccc(Cl)c1C
3. Cc1cc(C)c(N)c(S(=O)(=O)O)c1
4. C=C[Si](OC(C)=O)(OC(C)=O)OC(C)=O

Output:
96.1
87.1
101
95.5

Can you give me growth for all of these, one by one?
1. CCOC(=O)c1cc(/C=C/c2cccc(Cl)c2)on1
2. CC(CN1CCCCC1)NC(=O)c1scnc1-c1ccccc1 (centres undefined)
3. O=S(=O)(O)c1cc(O)c2c(N=Cc3ccccc3O)c(S(=O)(=O)O)ccc2c1
4. COc1cc(/C=C/C(=O)c2ccccc2)cc(OC)c1OC

Output:
[87.4, 86.1, 93.4, 71.2]

---

System: RPMI-8226 leukemia
Experiment: NCI-60 one-dose screen, 48 h (100 = growth as untreated, 0 = no growth, -100 = all killed)
Conditions: 10 µM
The panel holds about 83,000 compounds, 20% with a hit somewhere; the sample as a whole holds those more often.
Binary classification by growth, with 90% as an inclusive lower bound for TRUE; all other cases are FALSE.

Input: hey, is growth for this one >= 90%? CCN(CC)C(=O)/C=C(/C)c1ccccc1
Output: TRUE

---

System: NCI-H226 lung
Assay: NCI-60 one-dose screen, 48 h (100 = growth as untreated, 0 = no growth, -100 = all killed)
Conditions: 10 µM
Method: Growth inhibition of the NCI-H226 human Non-Small Cell Lung tumor cell line is measured as a screen for anti-cancer activity. Cells are grown in 96 well plates and exposed to the test compound for 48 hours. Compounds are tested at a single concentration, which is 10^-5 M for most compounds. The reported endpoint is percent growth (GI% or GIPRCNT), where numbers from 0 - 100% represent growth inhibition, and numbers from -100% - 0 represent cell death. […]
The panel holds about 83,000 compounds, 20% with a hit somewhere; the sample as a whole holds those more often.
Binary classification by growth, with 90% as an inclusive lower bound for Satisfied; all other cases are Not satisfied.

Worked examples, 4 molecules total:
given smiles	category label
CC(C)OC(=O)c1cc(NC(=S)OC(C)C)ccc1Cl	Not satisfied
[O-][N+](=Nc1cccc(Cl)c1)c1cccc(Cl)c1	Satisfied
COCCOCCCl	Satisfied
Cc1ncc(C#N)c(N)n1	Satisfied

Now for a further molecule.
Input: hey, is growth for this one >= 90%? CO[C@H]1C[C@@H]2CC[C@@H](C)[C@@](O)(O2)C(=O)C(=O)N2CCCC[C@H]2C(=O)O[C@H]([C@H](C)C[C@@H]2CC[C@@H](O)[C@H](OC)C2)CC(=O)[C@H](C)C=C(C)[C@@H](O)[C@@H](OC)C(=O)[C@H](C)C[C@H](C)/C=C/C=C/C=C1C
Output: Not satisfied
